target: voltage-dependent T-type calcium channel subunit alpha-1G (Cav3.2) (Homo sapiens); construct: expressed in transfected cells; host or cells: HEK293; assay: FLIPR calcium flux assay, HEK293 cells recombinantly expressing Cav3.2; format: cell-based; conditions: Cav3.2-channel, Fluo-4-AM, 3 min incubation, stimulation with 10 mM CaCl2
For each record, write down the corresponding pIC50.
Numbers only, as −log10 of the molar value.

- COMPOUND: "COCCN(C)c1ccc(CC(=O)Nc2ccn(Cc3ccc(F)cc3)n2)cn1"
  TESTED ON: "voltage-dependent T-type calcium channel subunit alpha-1G (Cav3.2) (Homo sapiens)"
  pIC50: 7.19
- COMPOUND: "N#Cc1ccc(Cn2ccc(NC(=O)Cc3ccc(C4(O)CC4)cc3)n2)nc1"
  TESTED ON: "voltage-dependent T-type calcium channel subunit alpha-1G (Cav3.2) (Homo sapiens)"
  pIC50: 6.49
- COMPOUND: "O=C(Cc1ccc(N2CCC2)nc1)Nc1ccn(Cc2ccc(F)c(F)c2)n1"
  TESTED ON: "voltage-dependent T-type calcium channel subunit alpha-1G (Cav3.2) (Homo sapiens)"
  pIC50: 7.32
- COMPOUND: "O=C(Cc1ccc(OCC2CC(F)(F)C2)cc1)Nc1ccn(Cc2ccc(F)c(F)c2)n1"
  TESTED ON: "voltage-dependent T-type calcium channel subunit alpha-1G (Cav3.2) (Homo sapiens)"
  pIC50: 7.48
- COMPOUND: "Cc1cc(CC(=O)Nc2ccn(Cc3ccc(F)c(C#N)n3)n2)ccc1OCCC(F)(F)F"
  TESTED ON: "voltage-dependent T-type calcium channel subunit alpha-1G (Cav3.2) (Homo sapiens)"
  pIC50: 8.06
- COMPOUND: "O=C(Cc1ccc(OCC2CC2)c(OC(F)(F)F)c1)Nc1ccn(Cc2ccc(F)c(F)c2)n1"
  TESTED ON: "voltage-dependent T-type calcium channel subunit alpha-1G (Cav3.2) (Homo sapiens)"
  pIC50: 7.41

Record pIC50 for all entries; do not skip any.
1. CO[C@@H](C)c1ccc(CC(=O)Nc2ccn(Cc3ccc(F)c(F)c3)n2)cc1 (single isomer, unassigned)
2. COCCN(C)c1ccc(CC(=O)Nc2ccn(Cc3ccc(OC)cc3)n2)cn1

Result:
1: 8.09; 2: 6.28

---

target: voltage-dependent T-type calcium channel subunit alpha-1G (Cav3.2) (Homo sapiens, UniProt O95180); assay: FLIPR calcium flux assay, HEK293 cells recombinantly expressing Cav3.2; details: Cav3.2-channel, Fluo-4-AM, 3 min incubation, stimulation with 10 mM CaCl2
Sequence (O95180 whole entry): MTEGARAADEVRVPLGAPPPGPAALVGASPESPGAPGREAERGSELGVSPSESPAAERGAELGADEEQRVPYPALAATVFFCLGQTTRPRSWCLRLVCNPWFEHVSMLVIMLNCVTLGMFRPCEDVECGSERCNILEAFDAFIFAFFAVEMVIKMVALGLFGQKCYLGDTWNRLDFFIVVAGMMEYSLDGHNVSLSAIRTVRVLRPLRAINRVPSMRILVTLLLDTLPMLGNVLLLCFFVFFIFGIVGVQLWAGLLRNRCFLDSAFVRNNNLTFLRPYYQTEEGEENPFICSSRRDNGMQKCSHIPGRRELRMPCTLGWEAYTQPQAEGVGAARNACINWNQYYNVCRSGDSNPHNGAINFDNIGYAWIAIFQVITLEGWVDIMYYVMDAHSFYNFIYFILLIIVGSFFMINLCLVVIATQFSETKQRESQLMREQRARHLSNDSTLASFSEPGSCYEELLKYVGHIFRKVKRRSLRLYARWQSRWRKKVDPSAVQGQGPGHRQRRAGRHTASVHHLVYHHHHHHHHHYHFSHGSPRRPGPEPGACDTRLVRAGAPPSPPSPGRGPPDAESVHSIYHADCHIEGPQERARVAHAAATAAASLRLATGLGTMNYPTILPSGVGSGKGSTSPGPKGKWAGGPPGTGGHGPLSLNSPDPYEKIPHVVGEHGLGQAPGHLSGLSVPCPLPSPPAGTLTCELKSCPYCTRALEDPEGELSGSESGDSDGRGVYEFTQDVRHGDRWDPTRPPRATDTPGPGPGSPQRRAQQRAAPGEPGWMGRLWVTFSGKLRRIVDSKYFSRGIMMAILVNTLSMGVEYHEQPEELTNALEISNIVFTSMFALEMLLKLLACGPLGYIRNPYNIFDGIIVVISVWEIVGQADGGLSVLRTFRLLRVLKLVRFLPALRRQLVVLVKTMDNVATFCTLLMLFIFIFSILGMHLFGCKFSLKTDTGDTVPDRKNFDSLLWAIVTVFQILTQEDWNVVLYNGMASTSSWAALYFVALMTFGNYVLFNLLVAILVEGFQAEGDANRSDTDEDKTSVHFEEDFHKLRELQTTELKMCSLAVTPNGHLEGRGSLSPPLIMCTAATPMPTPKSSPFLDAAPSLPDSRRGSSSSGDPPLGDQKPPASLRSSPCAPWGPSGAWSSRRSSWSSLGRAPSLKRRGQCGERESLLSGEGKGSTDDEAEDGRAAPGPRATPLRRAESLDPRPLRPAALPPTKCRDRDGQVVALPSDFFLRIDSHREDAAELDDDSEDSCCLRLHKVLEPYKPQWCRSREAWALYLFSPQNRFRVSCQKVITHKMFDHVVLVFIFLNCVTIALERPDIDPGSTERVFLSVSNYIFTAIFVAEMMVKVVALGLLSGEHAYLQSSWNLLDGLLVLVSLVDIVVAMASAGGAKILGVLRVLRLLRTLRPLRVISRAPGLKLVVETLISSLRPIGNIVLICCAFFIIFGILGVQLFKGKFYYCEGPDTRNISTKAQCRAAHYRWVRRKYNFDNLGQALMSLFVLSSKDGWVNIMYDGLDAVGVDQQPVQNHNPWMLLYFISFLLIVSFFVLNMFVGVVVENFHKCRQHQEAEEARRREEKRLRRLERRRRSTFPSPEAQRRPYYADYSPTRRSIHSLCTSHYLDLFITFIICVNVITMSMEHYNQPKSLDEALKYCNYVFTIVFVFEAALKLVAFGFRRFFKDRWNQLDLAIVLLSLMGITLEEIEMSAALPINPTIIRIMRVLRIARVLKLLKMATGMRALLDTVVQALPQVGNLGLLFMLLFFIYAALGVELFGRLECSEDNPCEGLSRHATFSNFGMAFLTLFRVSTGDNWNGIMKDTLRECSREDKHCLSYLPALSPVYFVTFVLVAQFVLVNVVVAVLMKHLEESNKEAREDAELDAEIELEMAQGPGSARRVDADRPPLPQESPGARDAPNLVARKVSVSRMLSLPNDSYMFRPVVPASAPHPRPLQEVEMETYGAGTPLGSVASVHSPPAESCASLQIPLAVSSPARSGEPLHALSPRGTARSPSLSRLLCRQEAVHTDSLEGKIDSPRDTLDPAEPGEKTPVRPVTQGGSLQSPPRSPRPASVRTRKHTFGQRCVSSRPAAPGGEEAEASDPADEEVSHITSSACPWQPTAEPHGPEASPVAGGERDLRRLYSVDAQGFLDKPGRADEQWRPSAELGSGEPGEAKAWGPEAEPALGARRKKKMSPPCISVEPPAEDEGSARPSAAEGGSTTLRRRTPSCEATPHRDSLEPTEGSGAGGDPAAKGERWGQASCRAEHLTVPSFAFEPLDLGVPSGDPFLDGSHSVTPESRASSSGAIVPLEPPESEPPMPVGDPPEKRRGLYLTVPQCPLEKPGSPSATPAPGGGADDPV
For each record, write down the corresponding log10 IC50.
Quick note: numbers are log10 of IC50, with nM as the unit.

Past entries and their recorded results:
- COMPOUND: "COc1ccc(Cn2ccc(NC(=O)Cc3ccc(N(C)C)nc3)n2)cc1 [Example 14]"
  log10 IC50: 2.81
- COMPOUND: "CCN(CC)c1ccc(CC(=O)Nc2ccn(Cc3ccc(C#N)cn3)n2)cn1 [Example 123]"
  log10 IC50: 3.10
- COMPOUND: "COCCN(C)c1ccc(CC(=O)Nc2ccn(Cc3ccc(F)c(F)c3)n2)cn1 [Example 180]"
  log10 IC50: 1.52
- COMPOUND: "N#Cc1ccc(Cn2ccc(NC(=O)Cc3ccc(N4CC[C@H](F)C4)nc3)n2)nc1 [Example 152]"
  log10 IC50: 3.06
- COMPOUND: "N#Cc1cc(Cn2ccc(NC(=O)Cc3ccc(C4(C#N)CC4)cc3)n2)ccc1F [Example 355]"
  log10 IC50: 1.41
- COMPOUND: "CN(C)c1ccc(CC(=O)Nc2ccn(Cc3ccc(F)cn3)n2)cc1 [Example 149]"
  log10 IC50: 1.93
- COMPOUND: "N#Cc1cnc(Cn2ccc(NC(=O)Cc3ccc(C4(C(F)(F)F)CC4)cc3)n2)c(F)c1 [Example 389]"
  log10 IC50: 2.70
- COMPOUND: "Cc1cn(C)c2cc(CC(=O)Nc3ccn(Cc4ccc(C#N)cn4)n3)ccc12 [Example 331]"
  log10 IC50: 0.98
- COMPOUND: "Cn1ncc2cc(CC(=O)Nc3ccn(Cc4ccc(C#N)c(F)c4)n3)ccc21 [Example 255]"
  log10 IC50: 1.72
- COMPOUND: "N#Cc1ccc(Cn2ccc(NC(=O)Cc3ccc(C4CC(F)(F)C4)cc3)n2)cc1F [Example 288]"
  log10 IC50: 0.67

Record log10 IC50 for all entries; do not skip any.
1. Cc1cc(CC(=O)Nc2ccn(Cc3ccc(F)c(C#N)n3)n2)ccc1OC(F)(F)F [Example 410]
2. CC(C)(c1ccc(CC(=O)Nc2ccn(Cc3ccc(C#N)cn3)n2)cc1)C(F)(F)F [Example 376]
3. CN(C)c1ccc(CC(=O)Nc2ccn(Cc3cc(F)c(F)c(F)c3)n2)cc1 [Example 24]
4. CC(C)c1ccc(CC(=O)Nc2ccn(Cc3ccc(C#N)c(Cl)n3)n2)cc1 [Example 110]

Result:
1.23
1.30
1.11
1.15

---

target: voltage-dependent T-type calcium channel subunit alpha-1G (Cav3.2) (Homo sapiens); assay: FLIPR calcium flux assay, HEK293 cells recombinantly expressing Cav3.2; settings: Cav3.2-channel, Fluo-4-AM, 3 min incubation, stimulation with 10 mM CaCl2
PARAMETER MEASURED: IC50 (nM)
Give bare numbers, in nM.

Past entries and their recorded results:
- COMPOUND: "O=C(Cc1ccc(N2CCCC2=O)cc1)Nc1ccn(Cc2ccc(F)cc2)n1 [Example 204]"
  READOUT UNITS: "nM"
  IC50: 79
- COMPOUND: "N#Cc1cc(Cn2ccc(NC(=O)Cc3ccc(OC4COC4)cc3)n2)ccc1F [Example 269]"
  READOUT UNITS: "nM"
  IC50: 162
- COMPOUND: "O=C(Cc1ccc(N2CC(F)(F)C2)cc1)Nc1ccn(Cc2ccc(F)cc2)n1 [Example 49]"
  READOUT UNITS: "nM"
  IC50: 9.2
- COMPOUND: "CN(C)c1ccc(CC(=O)Nc2ccn(Cc3ccc(Cl)c(OC(F)(F)F)c3)n2)cc1 [Example 34]"
  READOUT UNITS: "nM"
  IC50: 91
- COMPOUND: "Cc1ccc(Cn2ccc(NC(=O)Cc3ccc(N(C)C)nc3)n2)cc1F [Example 38]"
  READOUT UNITS: "nM"
  IC50: 39

Record IC50 for all entries; do not skip any.
1. Cn1ncc2cc(CC(=O)Nc3ccn(Cc4ccc(F)c(C#N)c4)n3)ccc21 [Example 268]
2. O=C(Cc1ccc(N2CC[C@H](F)C2)nc1)Nc1ccn(Cc2ccc(F)cc2)n1 [Example 155]
3. CC1(COc2ccc(CC(=O)Nc3ccn(Cc4cc(F)c(C#N)c(F)c4)n3)cc2)COC1 [Example 362]

Result:
[35, 70, 117]

---

target: voltage-dependent T-type calcium channel subunit alpha-1G (Cav3.2) (Homo sapiens); construct: expressed in transfected cells; host or cells: HEK293; assay: FLIPR calcium flux assay, HEK293 cells recombinantly expressing Cav3.2; assay type: cell-based; conditions: Cav3.2-channel, Fluo-4-AM, 3 min incubation, stimulation with 10 mM CaCl2
PARAMETER MEASURED: IC50
Kindly write the number and append the unit.

Past entries and their recorded results:
- MOLECULE: "O=C(Cc1ccc(-c2cnccn2)cc1)Nc1ccn(Cc2ccc(F)cc2)n1"
  IC50: "131 nM"
- MOLECULE: "Cn1ccc2ccc(CC(=O)Nc3ccn(Cc4ccc(C#N)cn4)n3)cc21"
  IC50: "39 nM"
- MOLECULE: "CN(C)c1ccc(CC(=O)Nc2ccn(Cc3ccc(C#N)c(F)c3)n2)cn1"
  IC50: "285 nM"
- MOLECULE: "CC1(COc2ccc(CC(=O)Nc3ccn(Cc4ccc(F)c(C#N)c4)n3)cc2)COC1"
  IC50: "138 nM"
- MOLECULE: "Cn1ccc2ccc(CC(=O)Nc3ccn(Cc4ccc(C#N)cc4)n3)cc21"
  IC50: "20 nM"
- MOLECULE: "Cc1ccc(Cn2ccc(NC(=O)Cc3ccc(C(C)C)cc3)n2)cc1"
  IC50: "12 nM"
- MOLECULE: "CC(C)c1ccc(CC(=O)Nc2ccn(Cc3ccc(N(C)C)cn3)n2)cc1"
  IC50: "338 nM"
- MOLECULE: "CN(C)c1ccc(CC(=O)Nc2ccn(Cc3ccc(Cl)c(C(F)(F)F)c3)n2)cc1"
  IC50: "61 nM"
- MOLECULE: "N#Cc1cc(Cn2ccc(NC(=O)Cc3ccc(C4(F)COC4)cc3)n2)ccc1F"
  IC50: "51 nM"
- MOLECULE: "CC(C)c1ccc(CC(=O)Nc2ccn(Cc3cc(F)c(C#N)c(F)c3)n2)cc1"
  IC50: "30 nM"

Record IC50 for all entries; do not skip any.
1. CC(C)(C)c1ccc(CC(=O)Nc2ccn(Cc3cc(C#N)c(F)cn3)n2)cc1
2. O=C(Cc1ccc(N2CC[C@H](F)C2)cc1)Nc1ccn(Cc2ccc(F)c(F)c2)n1
3. O=C(Cc1ccc(C2(F)COC2)nc1)Nc1ccn(Cc2ccc(F)c(F)c2)n1
4. CN(CC1CC1)c1ccc(CC(=O)Nc2ccn(Cc3ccc(C#N)cc3)n2)cn1
5. N#Cc1ccc(Cn2ccc(NC(=O)Cc3ccc(OCC4CC(F)(F)C4)cc3)n2)nc1
6. Cc1cc(CC(=O)Nc2ccn(Cc3ccc(F)c(C#N)n3)n2)ccc1OCC(F)(F)F
7. CC(C)c1ccc(CC(=O)Nc2ccn(Cc3cc(C4CC4)c(C#N)cn3)n2)cc1

Result:
49 nM
3.4 nM
240 nM
41 nM
118 nM
2.1 nM
191 nM
